// provenance: the supplement of paper PMC6757056

B1: library; a variant is named by its letters at N, in order (parent)
chain: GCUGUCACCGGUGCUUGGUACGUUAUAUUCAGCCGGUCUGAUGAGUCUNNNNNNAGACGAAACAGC

Variants of: B1
Assay: FACS-Seq fitted mean relative fluorescence mCherry/BFP without ligand (log10 relative fluorescence); HEK293T overexpressing SLC46A1; higher = higher reporter protein expression
Settings: without (6R,S)-folinic acid; ligand present: no
Below, each entry is listed with its recorded FACS-Seq fitted mean (log10).

| POLYMER_SEQUENCE | FACS-Seq fitted mean (log10) |
| --- | --- |
| GCUGUCACCGGUGCUUGGUACGUUAUAUUCAGCCGGUCUGAUGAGUCUUAGUUGAGACGAAACAGC [UAGUUG] | 0.194 |
| GCUGUCACCGGUGCUUGGUACGUUAUAUUCAGCCGGUCUGAUGAGUCUACACCGAGACGAAACAGC [ACACCG] | 0.142 |
| GCUGUCACCGGUGCUUGGUACGUUAUAUUCAGCCGGUCUGAUGAGUCUGAGGUUAGACGAAACAGC [GAGGUU] | -0.16 |
| GCUGUCACCGGUGCUUGGUACGUUAUAUUCAGCCGGUCUGAUGAGUCUACGACGAGACGAAACAGC [ACGACG] | 0.261 |

Query: Name the recorded FACS-Seq fitted mean (log10) of the variant listed here: GCUGUCACCGGUGCUUGGUACGUUAUAUUCAGCCGGUCUGAUGAGUCUAAACGGAGACGAAACAGC [AAACGG]
Result: 0.359

Query: Complete the entry with FACS-Seq fitted mean (log10) for GCUGUCACCGGUGCUUGGUACGUUAUAUUCAGCCGGUCUGAUGAGUCUCCUGCUAGACGAAACAGC [CCUGCU]
Result: -0.139

Query: For the variant GCUGUCACCGGUGCUUGGUACGUUAUAUUCAGCCGGUCUGAUGAGUCUGCUUAAAGACGAAACAGC [GCUUAA] , give its measured FACS-Seq fitted mean (log10) value.
Result: 0.522

Query: // fetch FACS-Seq fitted mean (log10) given entry GCUGUCACCGGUGCUUGGUACGUUAUAUUCAGCCGGUCUGAUGAGUCUUGUAGCAGACGAAACAGC [UGUAGC]
Result: 0.389

Query: State its FACS-Seq fitted mean (log10): GCUGUCACCGGUGCUUGGUACGUUAUAUUCAGCCGGUCUGAUGAGUCUGAGUACAGACGAAACAGC [GAGUAC]
Result: 0.375

Query: Output measured FACS-Seq fitted mean (log10) for this item: GCUGUCACCGGUGCUUGGUACGUUAUAUUCAGCCGGUCUGAUGAGUCUGGUAAUAGACGAAACAGC [GGUAAU]
Result: 0.342

Query: Give a short answer stating reported FACS-Seq fitted mean (log10) for GCUGUCACCGGUGCUUGGUACGUUAUAUUCAGCCGGUCUGAUGAGUCUAGGUGUAGACGAAACAGC [AGGUGU] .
Result: 0.0941
